What follows is a record of pKd for PCSK9 protein (Homo sapiens (Human)).
pKd: −log10 of the molar value.

>  <COMPOUND>
O=c1ccccn1-c1ccc(N[C@H]2CC[C@H](Nc3nc4cc(C5CC5)ccn4n3)C2)nc1

>  <pKd>
8.31

$$$$
>  <COMPOUND>
O=C1c2nc(C(F)(F)F)ccc2CN1c1ccc(N[C@H]2CC[C@H](Nc3nc4cc(F)ccn4n3)C2)nc1

>  <pKd>
8.55

$$$$
>  <COMPOUND>
O=C1c2cccnc2CN1c1ccc(NC2CCC(Nc3ncc(OC(F)(F)F)cn3)C2)nc1 (stereo not drawn)

>  <pKd>
8.66

$$$$
>  <COMPOUND>
Cc1nccc2c1CN(c1ccc(N[C@H]3CC[C@H](Nc4nc5cc(F)ccn5n4)C3)nc1)C2=O

>  <pKd>
8.85

$$$$
>  <COMPOUND>
O=c1ccccn1-c1ccc(N[C@H]2CC[C@H](Nc3nc4cc(Cl)ccn4n3)C2)nc1

>  <pKd>
8.57

$$$$
>  <COMPOUND>
O=C1c2ncccc2CN1c1ccc(N[C@H]2CC[C@H](Nc3ncc(C4CC4)cn3)C2)nc1

>  <pKd>
8.74

$$$$

====

experiment: Pharmacokinetic determination in mice (plasma); format: in vivo, C57BL/6J mice; details: male, C57BL/6J, mouse, 5 mg/kg, C57 mice, PO administration, 5 mpk, read-out: Mean residence time MRT
EXPERIMENTAL READOUT: MRT (h)

>  <COMPOUND>
O=C1c2cccc(C(F)(F)F)c2CN1c1ccc(N[C@H]2CC[C@H](Nc3ncc(C(F)(F)F)nn3)C2)nc1

>  <UNIT ABBREVIATION>
h

>  <RESULT VALUE>
19.5

$$$$
>  <COMPOUND>
O=C1c2ncccc2CN1c1ccc(N[C@H]2CC[C@H](Nc3ncc(OC(F)(F)F)cn3)C2)nc1

>  <UNIT ABBREVIATION>
h

>  <RESULT VALUE>
8.1

$$$$
>  <COMPOUND>
Cc1cc2c(cn1)CN(c1ccc(N[C@H]3CC[C@H](Nc4ncc(OC(F)F)cn4)C3)nc1)C2=O

>  <UNIT ABBREVIATION>
h

>  <RESULT VALUE>
7.2

$$$$
>  <COMPOUND>
O=C1c2ncccc2CN1c1ccc(N[C@H]2CC[C@H](Nc3ncc(C(F)(F)F)nn3)C2)nc1

>  <UNIT ABBREVIATION>
h

>  <RESULT VALUE>
4

$$$$
>  <COMPOUND>
Cc1nccc2c1CN(c1ccc(N[C@H]3CC[C@H](Nc4nc5cc(F)ccn5n4)C3)nc1)C2=O

>  <UNIT ABBREVIATION>
h

>  <RESULT VALUE>
2.4

$$$$
>  <COMPOUND>
O=C1c2cc(C(F)(F)F)ncc2CN1c1ccc(N[C@H]2CC[C@H](Nc3ncc(C(F)(F)F)nn3)C2)nc1

>  <UNIT ABBREVIATION>
h

>  <RESULT VALUE>
12.1

$$$$
>  <COMPOUND>
Cc1ccn2nc(N[C@H]3CC[C@H](Nc4ccc(-n5ccccc5=O)cn4)C3)nc2c1

>  <UNIT ABBREVIATION>
h

>  <RESULT VALUE>
3.1

$$$$
>  <COMPOUND>
O=C1c2ncccc2CN1c1ccc(N[C@H]2CC[C@H](Nc3ncc(OC(F)F)cn3)C2)nc1

>  <UNIT ABBREVIATION>
h

>  <RESULT VALUE>
4.8

$$$$
>  <COMPOUND>
Cc1cc2c(cn1)CN(c1ccc(N[C@H]3CC[C@H](Nc4nc5cc(F)ccn5n4)C3)nc1)C2=O

>  <UNIT ABBREVIATION>
h

>  <RESULT VALUE>
4.8

$$$$
>  <COMPOUND>
O=C1c2ncc(F)cc2CN1c1ccc(N[C@H]2CC[C@H](Nc3ncc(C(F)(F)F)nn3)C2)nc1

>  <UNIT ABBREVIATION>
h

>  <RESULT VALUE>
4.4

$$$$
>  <COMPOUND>
O=C1c2ncccc2CN1c1ccc(N[C@H]2CC[C@H](Nc3ncc(C(F)(F)F)cn3)C2)nc1

>  <UNIT ABBREVIATION>
h

>  <RESULT VALUE>
5.8

$$$$
>  <COMPOUND>
O=C1c2cc(C(F)(F)F)ncc2CN1c1ccc(N[C@H]2CC[C@H](Nc3nc4cc(F)ccn4n3)C2)nc1

>  <UNIT ABBREVIATION>
h

>  <RESULT VALUE>
19

$$$$
>  <COMPOUND>
Cc1cc2c(cn1)CN(c1ccc(N[C@H]3CC[C@H](Nc4ncc(C(F)(F)F)nn4)C3)nc1)C2=O

>  <UNIT ABBREVIATION>
h

>  <RESULT VALUE>
4.3

$$$$
>  <COMPOUND>
O=C1c2ncccc2CN1c1ccc(N[C@H]2CC[C@H](Nc3nc4cc(C(F)(F)F)ccn4n3)C2)nc1

>  <UNIT ABBREVIATION>
h

>  <RESULT VALUE>
2.2

$$$$
>  <COMPOUND>
O=C1c2nc(C(F)(F)F)ccc2CN1c1ccc(N[C@H]2CC[C@H](Nc3nc4cc(F)ccn4n3)C2)nc1

>  <UNIT ABBREVIATION>
h

>  <RESULT VALUE>
1.9

$$$$
